Provide the recorded AUC(0-inf) for the entries that follow.
# test_protocol: PK in mouse
# recorded_conditions: in vivo, IV 2 mg/kg
Answers are plain numbers, in ng·h/mL.

Worked cases, AUC(0-inf) given:
CCC(C)(C)C(=O)N(O)Cc1ccc(F)cc1 [SIR1-181]
522
CCC(C)(C)C(=O)N(O)Cc1ccccc1 [Compound 92, reference compound]
323

Give AUC(0-inf) for the following compound: CCC(C)(C)C(=O)N(O)Cc1cc(F)cc(F)c1 [Compound 13]
489

###

# test_protocol: PK in rat
# Set-up: species or system SD rat
# recorded_conditions: Sprague-Dawley, in vivo; Rat, IV 2 mg/kg
reported_endpoint: AUC(0-inf) (ng·h/mL)
Numbers only, in ng·h/mL.

CCC(C)(C)C(=O)N(O)Cc1ccccc1 [Compound 92, reference compound]
520

Give AUC(0-inf) for the following molecule: `CCC(C)(C)C(=O)N(O)Cc1cc(F)cc(F)c1`
540

###

# test_protocol: PK in rat
# Set-up: species or system SD rat
# recorded_conditions: Sprague-Dawley, rat, in vivo, po, 20 mg/kg, PO 20 mg/kg
reported_endpoint: half-life (h)
One number for each entry, in h.

Give half-life for the following molecule: `CCC(C)(C)C(=O)N(O)Cc1cc(F)cc(F)c1`
1.4

###

# test_protocol: Hepatocyte stability, monkey
# Format: in vitro ADME
# recorded_conditions: monkey, hepatocytes, Hepatocyte stability; read-out: Monkey T1/2
reported_endpoint: half-life (min)
Give bare numbers, in min.

Worked cases, half-life given:
[2H]CC([2H])C(C)(C)C(=O)N(O)Cc1cc(F)cc(F)c1 (stereo not drawn) [Compound 26]
19.3
CCC(C)(C)C(=O)N(O)Cc1cc(F)cc(F)c1 [Compound 13]
24.9

Give half-life for the following molecule: CCC(C)(C)C(=O)N(O)Cc1ccccc1 [Compound 92, reference compound]
18.9

###

# test_protocol: PK in monkey
# recorded_conditions: in vivo, PO 100 mg/kg
reported_endpoint: Cmax (ng/mL)
Give bare numbers, in ng/mL.

Give Cmax for the following compound: `CCC(C)(C)C(=O)N(O)Cc1cc(F)cc(F)c1`
10700

###

# test_protocol: Liver microsome stability, mini-pig
# Format: in vitro ADME
# recorded_conditions: minipig, liver microsomes, read-out: mini-pig T1/2
reported_endpoint: half-life (min)
Answers are plain numbers, in min.

Give half-life for the following compound: CCC(C)(C)C(=O)N(O)Cc1ccccc1 [Compound 92, reference compound]
53.5

###

# test_protocol: PK in monkey
# recorded_conditions: in vivo, PO 30 mg/kg
reported_endpoint: Cmax (ng/mL)
Answers are plain numbers, in ng/mL.

Give Cmax for the following compound: CCC(C)(C)C(=O)N(O)Cc1cc(F)cc(F)c1 [Compound 13]
3730

###

Provide the recorded bioavailability for the entries that follow.
# test_protocol: PK in rat
# Set-up: species or system SD rat
# recorded_conditions: Sprague-Dawley, rat, in vivo, po, 10 mg/kg, SD rat, PO 10 mg/kg
Numbers only, in %.

Can you give me bioavailability for all of these, one by one?
1. [2H]C([2H])C([2H])([2H])C(C)(C)C(=O)N(O)Cc1ccccc1
2. CCC(C)(C)C(=O)N(O)Cc1ccccc1 [Compound 92, reference compound]
3. [2H]CC([2H])C(C)(C)C(=O)N(O)Cc1ccccc1 (stereo not shown)
4. CCC(C)(C)C(=O)N(O)Cc1ccc(Cl)cc1

[14.8, 1.15, 5.29, 20.3]

Attribution: patent US12129221B2
